# Target desc: HSV-1 helicase-primase (Human herpesvirus 1, UniProt P10189+P10236)
# Construct: made in house; host or cells: Sf21 insect cells triply infected with recombinant baculoviruses (UL5, UL8, UL52)
# Sequence (P10192 whole entry): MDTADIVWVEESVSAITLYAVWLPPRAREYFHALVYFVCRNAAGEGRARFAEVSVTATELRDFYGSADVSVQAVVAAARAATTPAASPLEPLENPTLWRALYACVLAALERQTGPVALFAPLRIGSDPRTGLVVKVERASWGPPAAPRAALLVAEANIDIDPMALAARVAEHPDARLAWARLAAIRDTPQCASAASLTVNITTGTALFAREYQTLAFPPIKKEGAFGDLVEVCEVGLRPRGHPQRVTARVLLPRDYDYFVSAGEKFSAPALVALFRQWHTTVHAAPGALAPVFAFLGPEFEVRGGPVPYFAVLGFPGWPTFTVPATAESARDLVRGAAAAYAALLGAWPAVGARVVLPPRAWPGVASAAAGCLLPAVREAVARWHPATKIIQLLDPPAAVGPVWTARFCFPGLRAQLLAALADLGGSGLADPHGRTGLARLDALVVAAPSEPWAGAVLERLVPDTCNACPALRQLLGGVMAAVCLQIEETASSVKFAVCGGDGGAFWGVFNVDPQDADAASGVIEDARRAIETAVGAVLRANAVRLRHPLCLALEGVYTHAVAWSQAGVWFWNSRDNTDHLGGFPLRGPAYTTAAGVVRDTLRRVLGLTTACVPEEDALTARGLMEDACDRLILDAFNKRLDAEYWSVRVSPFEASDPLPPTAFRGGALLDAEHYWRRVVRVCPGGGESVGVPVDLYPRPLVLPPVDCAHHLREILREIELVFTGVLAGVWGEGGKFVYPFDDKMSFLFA
# Sequence (P10236 whole entry): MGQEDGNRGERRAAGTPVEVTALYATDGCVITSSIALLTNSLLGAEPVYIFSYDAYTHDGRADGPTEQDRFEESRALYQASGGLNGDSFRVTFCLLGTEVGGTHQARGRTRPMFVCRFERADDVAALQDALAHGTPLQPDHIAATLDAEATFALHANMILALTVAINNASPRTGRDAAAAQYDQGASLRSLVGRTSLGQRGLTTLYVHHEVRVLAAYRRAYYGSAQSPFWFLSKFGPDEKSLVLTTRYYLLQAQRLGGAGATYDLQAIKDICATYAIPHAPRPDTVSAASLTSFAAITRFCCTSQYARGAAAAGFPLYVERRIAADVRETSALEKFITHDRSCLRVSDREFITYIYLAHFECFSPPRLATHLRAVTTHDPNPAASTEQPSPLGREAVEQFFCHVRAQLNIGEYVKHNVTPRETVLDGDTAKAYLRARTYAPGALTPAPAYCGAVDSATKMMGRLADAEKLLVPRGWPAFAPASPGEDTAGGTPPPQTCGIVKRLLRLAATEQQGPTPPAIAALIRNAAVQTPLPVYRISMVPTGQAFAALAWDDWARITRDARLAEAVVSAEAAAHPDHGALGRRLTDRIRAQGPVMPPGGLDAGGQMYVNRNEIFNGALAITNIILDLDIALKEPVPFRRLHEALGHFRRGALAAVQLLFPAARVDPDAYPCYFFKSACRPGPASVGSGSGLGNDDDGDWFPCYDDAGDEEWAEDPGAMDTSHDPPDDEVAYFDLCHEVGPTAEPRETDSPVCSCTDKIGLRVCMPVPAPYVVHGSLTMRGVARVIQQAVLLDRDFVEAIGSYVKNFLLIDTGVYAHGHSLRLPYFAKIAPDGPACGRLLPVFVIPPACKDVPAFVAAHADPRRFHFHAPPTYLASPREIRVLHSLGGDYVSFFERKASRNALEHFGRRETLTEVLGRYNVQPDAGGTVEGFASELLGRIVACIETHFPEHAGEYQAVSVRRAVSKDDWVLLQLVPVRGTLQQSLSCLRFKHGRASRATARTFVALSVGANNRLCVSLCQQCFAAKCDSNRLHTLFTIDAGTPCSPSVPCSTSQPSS
# Sequence (P10189 whole entry): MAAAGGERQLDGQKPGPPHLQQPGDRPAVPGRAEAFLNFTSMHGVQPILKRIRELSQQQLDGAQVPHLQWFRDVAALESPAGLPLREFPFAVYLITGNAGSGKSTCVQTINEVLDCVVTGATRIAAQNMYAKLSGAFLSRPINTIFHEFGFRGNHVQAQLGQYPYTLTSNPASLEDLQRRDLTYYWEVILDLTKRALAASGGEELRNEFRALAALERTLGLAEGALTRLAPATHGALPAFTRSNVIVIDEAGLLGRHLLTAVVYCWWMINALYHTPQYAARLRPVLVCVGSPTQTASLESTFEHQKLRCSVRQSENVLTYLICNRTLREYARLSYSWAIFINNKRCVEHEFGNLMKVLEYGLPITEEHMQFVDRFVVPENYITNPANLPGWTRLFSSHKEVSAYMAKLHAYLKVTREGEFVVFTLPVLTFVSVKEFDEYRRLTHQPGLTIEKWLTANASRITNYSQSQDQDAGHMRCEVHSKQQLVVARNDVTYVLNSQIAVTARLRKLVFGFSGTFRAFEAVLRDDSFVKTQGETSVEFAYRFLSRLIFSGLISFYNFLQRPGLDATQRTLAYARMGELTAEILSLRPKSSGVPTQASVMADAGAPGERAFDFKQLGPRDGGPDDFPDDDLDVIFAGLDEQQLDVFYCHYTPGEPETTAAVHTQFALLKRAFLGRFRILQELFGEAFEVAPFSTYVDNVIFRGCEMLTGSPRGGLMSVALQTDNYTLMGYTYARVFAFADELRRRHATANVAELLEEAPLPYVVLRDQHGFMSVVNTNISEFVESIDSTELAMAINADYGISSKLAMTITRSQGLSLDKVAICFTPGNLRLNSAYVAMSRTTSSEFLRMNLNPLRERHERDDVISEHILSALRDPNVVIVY
# Assay summary: HSV-1 DNA-dependent ATPase assay (inhibition of HSV-1 helicase-primase)
# Format: biochemical
# Cond: Group 1 Table 1 entries
Please respond with reported log10 IC50 for every item in the list.
Values below are the log10 of the recorded IC50, with nM as the unit.

Some molecules with recorded log10 IC50:
# Chem smiles, log10 IC50
measured = [
    ("Cc1cnccc1C(=O)N(CC(=O)Nc1ccc(-c2csc(N)n2)cc1)Cc1ccccc1", 2.15),
    ("COc1ccc(CN(CC(=O)Nc2ccc(-c3csc(N)n3)cc2)C(=O)c2ccncc2)cc1", 3.30),
    ("Nc1nc(-c2ccc(NC(=O)CN(CC3CCCCC3)C(=O)CC3CCCCC3)cc2)cs1", 1.90),
    ("Nc1nc(-c2ccc(NC(=O)CN(Cc3cccnc3)C(=O)C3CCCCC3)cc2)cs1", 2.15),
    ("Nc1nc(-c2ccc(NC(=O)CN(Cc3cccc(F)c3)Cc3cccc(F)c3)cc2)cs1", 2.60),
    ("Nc1nc(-c2ccc(NC(=O)CNCc3ccc(Cl)cc3)cc2)cs1", 3.73),
]

Here is another molecule to look at.
Challenge: If you can, please state the reported log10 IC50 value of Nc1nc(-c2ccc(NC(=O)CN(Cc3cccc(Cl)c3)C(=O)c3ccncc3)cc2)cs1 .
Response given: 2.18

----------
Please respond with reported pEC50 for every item in the list.
# Test system: HSV-1 strain F or KOS
# Assay summary: Inhibition of herpes simplex virus (HSV-1) replication in cell culture (BHK-21 cells, glycoprotein C ELISA)
# Format: cell-based
# Cond: Human alphaherpesvirus 1, BHK-21, Group 1 Table 1 entries
Answers are plain numbers, as −log10 of the molar value.

I have 6 compounds here; please give me pEC50 for each one.
1. Nc1nc(-c2ccc(NC(=O)CN(Cc3cccc(Cl)c3)C(=O)c3ccncc3)cc2)cs1 [Example 146]
2. C[C@H](NCC(=O)Nc1ccc(-c2csc(N)n2)cc1)c1ccccc1 [Example 10]
3. C[C@@H](C1CCCCC1)N(CC(=O)Nc1ccc(-c2csc(N)n2)cc1)C(=O)OC(C)(C)C [Example 108]
4. Cc1cccc(CN(CC(=O)Nc2ccc(-c3csc(N)n3)cc2)C(=O)c2ccncc2)c1 [Example 151]
5. Nc1nc(-c2ccc(NC(=O)CN(Cc3cccs3)C(=O)c3ccncc3)cc2)cs1 [Example 159]
6. Nc1nc(-c2ccc(NC(=O)CN(CC3CCCCC3)C(=O)CC3CCCCC3)cc2)cs1 [Example 76]

Response given:
[8.30, 5.66, 6.41, 7.96, 6.68, 6.80]

I have 2 compounds here; please give me pEC50 for each one.
1. Nc1nc(-c2ccc(NC(=O)CN(Cc3c(F)cccc3F)C(=O)c3ccncc3)cc2)cs1 [Example 153]
2. Nc1nc(-c2ccc(NC(=O)CN(Cc3cccs3)C(=O)C3CCCCC3)cc2)cs1 [Example 51]

Response given:
6.72
8.70

----------
# Test system: HCMV (strain AD169)
# Assay summary: Inhibition of HCMV replication, plaque reduction assay (PRA, Hs-68 cells)
# Type: cell-based, Human Cytomegalovirus (HCMV)
# Cond: Human betaherpesvirus 5, AD169, Hs68, Group 1 Table 1 entries, read-out: PRA CMV EC50
Test readout: pEC50
Numbers only, as −log10 of the molar value.

I have 7 molecules here; please give me pEC50 for each one.
1. Cc1ccccc1CN(CC(=O)Nc1ccc(-c2csc(N)n2)cc1)C(=O)Cc1ccccn1
2. Cc1ccccc1CN(CC(=O)Nc1ccc(-c2csc(N)n2)cc1)C(=O)Cc1ccsc1
3. Nc1nc(-c2ccc(NC(=O)CN(Cc3ccncc3)C(=O)C3CCCCC3)cc2)cs1
4. Nc1nc(-c2ccc(NC(=O)CNC(=O)c3cccnc3)cc2)cs1
5. Nc1nc(-c2ccc(NC(=O)CN(Cc3ccccc3)C(=O)COc3ccccc3)cc2)cs1
6. Nc1nc(-c2ccc(NC(=O)CN(Cc3ccccc3)C(=O)c3ccncc3)cc2)cs1
7. C[C@@H](c1ccccc1)N(CC(=O)Nc1ccc(-c2csc(N)n2)cc1)C(=O)OC(C)(C)C

Response given:
4.60
4.85
4.64
4.22
4.82
4.57
4.42

----------
# Test system: HSV-1 strain F or KOS
# Assay summary: Inhibition of herpes simplex virus (HSV-1) replication in cell culture (BHK-21 cells, glycoprotein C ELISA)
# Assay type: cell-based
# Cond: Human alphaherpesvirus 1, BHK-21, Group 1 Table 1 entries
Please respond with reported EC50 for every item in the list.
One number for each entry, in µM.

# Compound, Val
data = [
    ("Nc1nc(-c2ccc(NC(=O)CN(CC3CCCCC3)C(=O)C3CCCC3)cc2)cs1 [Example 63]", 0.25),
]

I have 3 compounds here; please give me EC50 for each one.
1. Nc1nc(-c2ccc(NC(=O)CN(CC3CCCCC3)C(=O)C3CCNCC3)cc2)cs1 [Example 62]
2. Nc1nc(-c2ccc(NC(=O)CN(Cc3ccccc3F)Cc3ccccc3F)cc2)cs1 [Example 17]
3. CC(C)(C)NC(=S)N(CC(=O)Nc1ccc(-c2csc(N)n2)cc1)Cc1ccccc1 [Example 93]

Response given:
1: 5.5; 2: 4; 3: 0.12

----------
# Assay summary: Inhibition of HCMV replication, plaque reduction assay (PRA, Hs-68 cells)
# Format: cell-based, Human Cytomegalovirus (HCMV)
# Cond: human, Group 1 Table 1 entries, read-out: Cytotoxic at this concentration (footnote *, PRA CMV)
Test readout: MCC at 192 h (µM)
One number for each entry, in µM.

Some compounds with recorded MCC at 192 h:
# Compound, Units label, MCC at 192 h
data = [
    ("CCCC(CCC)N(CC(=O)Nc1ccc(-c2csc(N)n2)cc1)C(=O)C1CCCCC1 [Example 82]", "µM", 7),
    ("Nc1nc(-c2ccc(NC(=O)CN(CC3CCCCC3)S(=O)(=O)N3CCOCC3)cc2)cs1 [Example 107]", "µM", 12),
]

I have 6 compounds here; please give me MCC at 192 h for each one.
1. Nc1nc(-c2ccc(NC(=O)CN(Cc3ccccc3)C(=O)Cc3cccnc3)cc2)cs1 [Example 113]
2. Nc1nc(-c2ccc(NC(=O)CN(Cc3ccccc3)C(=O)c3ccccn3)cc2)cs1 [Example 27]
3. Nc1nc(-c2ccc(NC(=O)CN(CC3CCCCC3)C(=O)C3CCCC3)cc2)cs1 [Example 63]
4. Nc1nc(-c2ccc(NC(=O)CNCCCc3ccccc3)cc2)cs1 [Example 3]
5. Cc1ccccc1CN(CC(=O)Nc1ccc(-c2csc(N)n2)cc1)C(=O)Cc1ccccn1 [Example 127]
6. C[C@H](NCC(=O)Nc1ccc(-c2csc(N)n2)cc1)c1ccccc1 [Example 10]

Response given:
1: 50; 2: 36; 3: 21; 4: 14; 5: 25; 6: 30

----------
# Tested on: HCMV (strain AD169)
# Assay summary: Inhibition of HCMV replication, plaque reduction assay (PRA, Hs-68 cells)
# Type: cell-based, Human Cytomegalovirus (HCMV)
# Cond: Human betaherpesvirus 5, AD169, Hs68, Group 1 Table 4 entries, read-out: PRA CMV EC50
Test readout: pEC50
Answers are plain numbers, as −log10 of the molar value.

# Chem smiles, pEC50
rows = [
    ("CC(C)(C)NC(=O)Nc1nc(-c2ccc(NC(=O)CCN(Cc3ccccc3)Cc3ccccc3)cc2)cs1", 5.82),
]

Challenge: If you can, please state the reported pEC50 value of CC(C)(C)OC(=O)Nc1nc(-c2ccc(NC(=O)CCN(Cc3ccccc3)Cc3ccccc3)cc2)cs1 .
Response given: 5.80

----------
# System: HSV-1 strain F or KOS
# Assay summary: Inhibition of herpes simplex virus (HSV-1) replication in cell culture (BHK-21 cells, glycoprotein C ELISA)
# Assay type: cell-based
# Cond: Human alphaherpesvirus 1, BHK-21, Group 1 Table 1 entries
Define the label as T when EC50 is strictly less than 700 nM and as F in all remaining cases.

Below, 3 molecules whose answers are already recorded.
# Chem smiles, Target desc, Group
measured = [
    ("CN(C)c1cccc2c(S(=O)(=O)N(CC(=O)Nc3ccc(-c4csc(N)n4)cc3)Cc3ccncc3)cccc12", "HSV-1 strain F or KOS", "T"),
    ("C[C@H](c1ccccc1)N(CC(=O)Nc1ccc(-c2csc(N)n2)cc1)C(=O)OC(C)(C)C", "HSV-1 strain F or KOS", "F"),
    ("Cc1cccc(CN(CC(=O)Nc2ccc(-c3csc(N)n3)cc2)C(=O)c2ccncc2)c1C", "HSV-1 strain F or KOS", "T"),
]

Challenge: Is 700 nM strictly greater than the molecule's reported EC50? molecule: CC(C)(C)NC(=O)N(CC(=O)Nc1ccc(-c2csc(N)n2)cc1)Cc1ccccc1
Response given: T

Challenge: Is 700 nM strictly greater than the molecule's reported EC50? molecule: COc1ccccc1CN(CC(=O)Nc1ccc(-c2csc(N)n2)cc1)C(=O)c1ccncc1
Response given: T

Challenge: Is 700 nM strictly greater than the molecule's reported EC50? molecule: Cc1ccccc1CN(CC(=O)Nc1ccc(-c2csc(N)n2)cc1)C(=O)c1ccncc1
Response given: T

Challenge: Is 700 nM strictly greater than the molecule's reported EC50? molecule: Nc1nc(-c2ccc(NC(=O)CN(CCc3ccccn3)C(=O)C3CCCCC3)cc2)cs1
Response given: T

Challenge: Is 700 nM strictly greater than the molecule's reported EC50? molecule: Nc1nc(-c2ccc(NC(=O)CN(CCC3CCCCC3)C(=O)C3CCCCC3)cc2)cs1
Response given: T

Challenge: Is 700 nM strictly greater than the molecule's reported EC50? molecule: Nc1nc(-c2ccc(NC(=O)CNCCN3CCOCC3)cc2)cs1
Response given: F

Challenge: Is 700 nM strictly greater than the molecule's reported EC50? molecule: CC(C)(C)OC(=O)N(CCc1ccccn1)CC(=O)Nc1ccc(-c2csc(N)n2)cc1
Response given: F

Challenge: Is 700 nM strictly greater than the molecule's reported EC50? molecule: COc1ccc(CNCC(=O)Nc2ccc(-c3csc(N)n3)cc2)cc1
Response given: F

Challenge: Is 700 nM strictly greater than the molecule's reported EC50? molecule: Nc1nc(-c2ccc(NC(=O)CN(Cc3ccccc3)C(=O)c3ccncc3)cc2)cs1
Response given: T

Challenge: Is 700 nM strictly greater than the molecule's reported EC50? molecule: Cc1ccc(CN(CC(=O)Nc2ccc(-c3csc(N)n3)cc2)C(=O)c2ccncc2)cc1
Response given: T

Challenge: Is 700 nM strictly greater than the molecule's reported EC50? molecule: CC(C)(C)OC(=O)N1CCC(C(=O)N(CC(=O)Nc2ccc(-c3csc(N)n3)cc2)CC2CCCCC2)CC1
Response given: F
